experiment_description: Tmax in Sprague-Dawley rat plasma
Type: ADME, organism-based
endpoint_name: Tmax (min)
Entry rule: numbers only, all in min.

The recorded Tmax for COCc1cccc(CNC(=O)c2cc(-c3ccco3)nc(N)n2)n1 is 15

----------
system_tested: Adenosine receptor A2a (Homo sapiens, UniProt P29274)
Sequence (P29274 whole entry): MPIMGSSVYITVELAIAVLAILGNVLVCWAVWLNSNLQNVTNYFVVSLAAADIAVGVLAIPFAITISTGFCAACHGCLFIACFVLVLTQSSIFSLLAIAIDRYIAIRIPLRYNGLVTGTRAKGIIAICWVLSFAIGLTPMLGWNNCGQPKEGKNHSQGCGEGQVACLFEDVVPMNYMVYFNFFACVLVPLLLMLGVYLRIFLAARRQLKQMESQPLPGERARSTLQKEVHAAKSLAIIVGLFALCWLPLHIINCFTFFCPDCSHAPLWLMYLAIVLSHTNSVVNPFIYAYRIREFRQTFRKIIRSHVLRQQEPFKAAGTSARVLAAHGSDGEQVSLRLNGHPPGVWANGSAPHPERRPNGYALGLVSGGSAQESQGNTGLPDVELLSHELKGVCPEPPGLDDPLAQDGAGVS
Field 'label' (enum: satisfied / not satisfied). Set to satisfied when Ki is strictly under 8 nM; else not satisfied.

Example entries begin here.
Nc1nc(C(=O)NCc2ccco2)cc(-c2ccco2)n1 | not satisfied
COc1ccccc1CC(=O)Nc1nc(N)nc(-c2ccco2)c1[N+](=O)[O-] | not satisfied
COc1cccc(CNC(=O)c2cc(-c3ccco3)nc(N)n2)c1 | satisfied
Nc1nc(C(=O)NCc2ccccc2Cl)cc(-c2ccco2)n1 | satisfied
Cc1cccc(CNC(=O)c2cc(-c3ccco3)nc(N)n2)c1 | satisfied
COCc1cccc(CNC(=O)c2cc(-c3ccco3)nc(N)n2)n1 | satisfied
Cc1ccc(CNC(=O)c2cc(-c3ccco3)nc(N)n2)cc1 | not satisfied
Nc1nc(C(=O)NCc2cccc(F)c2)cc(-c2ccco2)n1 | satisfied
Cc1ccccc1CNC(=O)c1cc(-c2ccco2)nc(N)n1 | satisfied
Nc1nc(C(=O)NCc2ccc(Cl)cc2)cc(-c2ccco2)n1 | not satisfied

Here's an entry: Nc1nc(C(=O)NCc2cccc(Cl)c2)cc(-c2ccco2)n1 . Is its Ki below 8 nM? satisfied

Here's an entry: Nc1nc(C(=O)NCc2ccc(F)cc2)cc(-c2ccco2)n1 . Is its Ki below 8 nM? not satisfied

Here's an entry: Nc1nc(C(=O)NCc2ccncc2)cc(-c2ccco2)n1 . Is its Ki below 8 nM? not satisfied

Here's an entry: Nc1nc(C(=O)NCc2cccnc2)cc(-c2ccco2)n1 . Is its Ki below 8 nM? not satisfied

Here's an entry: Nc1nc(C(=O)NCc2ccccc2)cc(-c2ccco2)n1 . Is its Ki below 8 nM? satisfied

Here's an entry: COc1ccccc1C(=O)Nc1nc(N)nc(-c2ccco2)c1[N+](=O)[O-] . Is its Ki below 8 nM? not satisfied

Here's an entry: Nc1nc(NC(=O)c2ccccc2OC(F)(F)F)c([N+](=O)[O-])c(-c2ccco2)n1 . Is its Ki below 8 nM? not satisfied
